Target: hGLP-1R (Homo sapiens)
Sequence (P43220 24-463): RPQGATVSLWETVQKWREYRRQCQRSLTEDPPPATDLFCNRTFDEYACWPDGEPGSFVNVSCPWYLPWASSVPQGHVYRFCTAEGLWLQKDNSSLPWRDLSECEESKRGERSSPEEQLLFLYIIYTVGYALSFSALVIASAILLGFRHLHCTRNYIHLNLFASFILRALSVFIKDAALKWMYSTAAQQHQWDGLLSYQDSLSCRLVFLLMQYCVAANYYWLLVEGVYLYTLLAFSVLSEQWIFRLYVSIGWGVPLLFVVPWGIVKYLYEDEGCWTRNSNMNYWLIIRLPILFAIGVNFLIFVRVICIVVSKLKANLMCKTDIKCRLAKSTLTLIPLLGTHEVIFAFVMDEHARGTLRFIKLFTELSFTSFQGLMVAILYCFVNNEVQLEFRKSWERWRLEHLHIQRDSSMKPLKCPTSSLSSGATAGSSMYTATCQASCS
Assay: Functional cAMP activation in the presence of 0.1% casein (no HSA);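 note: intracellular cAMP rise after 30 min at 37 °C read by HTRF, normalized between buffer only (0%) and maximal control ligand (100%), four-parameter variable-slope fit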
Assay type: cell-based
Conditions: in the presence of 0.1% casein (no HSA); geometric mean; read-out: Relative cAMP EC50, hGLP-1R
Starred links: 1 amine or outer side, 2 acyl side, 3 side chain; linkers in the order of their positions; H or OH if unused. Non-standard residues stand in square brackets, D forms with d. Groups on a side chain read outwards from the residue. No end group written: not given here. *: point of attachment. C20 diacid = O=C(O)CCCCCCCCCCCCCCCCCCC(=O)*; C18 diacid = O=C(O)CCCCCCCCCCCCCCCCC(=O)*; αMePhe(2-F) = C[C@](N)(Cc1ccccc1F)C(=O)O; γGlu = O=C(O)[C@H](CCC(=O)[*:2])N[*:1]; αMe4Pal = C[C@](N)(Cc1ccncc1)C(=O)O; αMeY = C[C@](N)(Cc1ccc(O)cc1)C(=O)O; 4Pal = N[C@@H](Cc1ccncc1)C(=O)O; αMeL = CC(C)C[C@](C)(N)C(=O)O; αMeS = C[C@](N)(CO)C(=O)O; Orn = NCCC[C@H](N)C(=O)O; AEEA = NCCOCCOCC(=O)O; Aib = CC(C)(N)C(=O)O
Readout: pEC50
Notebook: values listed as pEC50 are -log10 of the concentration (mol/L).

A selection of reference data follows.
H-Y[Aib]QGTFTSD[4Pal]SQ[αMeL]LDKK([γGlu-γGlu-C18 diacid])AQ[αMe4Pal]AFIEYLIAGGESSGAPPPSGSEE-NH2 [Example 963] ... 8.75
H-Y[Aib]QGTFTSD[4Pal]S[Orn][αMeL]LD[Orn]K([γGlu-γGlu-C18 diacid])AQ[αMe4Pal][Orn]FIE[αMeY]LLAGGPSSGAPPPSGSEE-NH2 [Example 997] ... 7.68
H-Y[Aib]QGT[αMePhe(2-F)]TSD[4Pal][αMeS]I[αMeL]LD[Orn]K([AEEA-γGlu-C18 diacid])AQ[αMe4Pal]EFI[dE][αMeY]LVEGGPSSGAPPPGGE-NH2 [Example 1154] ... 9.46
H-Y[Aib]QGTFTSDFSK[αMeL]LDKK([AEEA-AEEA-γGlu-C18 diacid])AQ[Aib]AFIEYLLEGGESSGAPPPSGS-NH2 [Example 147] ... 8.37
H-Y[Aib]QGTFTSDFSK[αMeL]LDKK([AEEA-AEEA-γGlu-C20 diacid])AQ[Aib]AFIEYLLAGGPSSGEPPPSSE-NH2 [Example 5] ... 8.63

Find the recorded pEC50 belonging to H-Y[Aib]QGTFTSDFSK[αMeL]LDKK([AEEA-γGlu-C20 diacid])AQ[Aib]AFIEYLLEGGPSSGAPPP[γGlu]GE-NH2 [Example 53] and report it.
8.48

Find the recorded pEC50 belonging to H-Y[Aib]QGTFTSDFS[Orn][αMeL]LD[Orn]K([γGlu-γGlu-C18 diacid])AQ[Aib]AFIE[αMe4Pal]LLAGGPSSGAPPPEGSEE-NH2 [Example 1053] and report it.
8.21

Find the recorded pEC50 belonging to H-Y[Aib]QGT[αMePhe(2-F)]TSDYSK[αMeL]LDKK([AEEA-γGlu-C18 diacid])AQ[Aib]QFIEYLEEGGPSSGEPPPSEG-NH2 [Example 292] and report it.
8.99

Find the recorded pEC50 belonging to Y[Aib]QGTFTSD[4Pal]SQ[αMeL]LDKK([γGlu-γGlu-C18 diacid])AQ[αMe4Pal]AFIE[αMe4Pal]LIE[Aib]GPSSGAPPPSGSEE-NH2 [Example 1122] and report it.
8.25

Find the recorded pEC50 belonging to H-Y[Aib]QGTFTSDFS[Orn][αMeL]LDKK([AEEA-AEEA-γGlu-C18 diacid])AQ[Aib]AFIEYLLE[Aib]GPSSGAPPPSGE-NH2 [Example 111] and report it.
8.30

Find the recorded pEC50 belonging to H-Y[Aib]QGTFTSD[4Pal]SK[αMeL]LDKK([AEEA-γGlu-C18 diacid])AQ[Aib]AFIEYLIE[Aib]GESSGEPPPSGS-NH2 [Example 282] and report it.
8.96

Find the recorded pEC50 belonging to H-Y[Aib]QGTFTSDYSI[αMeL]LDKQAAK([AEEA-AEEA-γGlu-C20 diacid])AFVEWLLAGGPSSGEPPPSEG-NH2 [Example 305] and report it.
8.83

Recorded values, source patent US20240270821A1.
